Assay: Phase I study CXR1002-001: plasma pharmacokinetics (LC-MS/MS)
Type: in vivo, human
Settings: human, plasma, oral, 450 mg, Patient 016 Dose 450 mg; 504 hr (Day 22); read-out: Concentration
recorded_metric: concentration at 504 h (µM)
# value in µM; strip the unit string

Enquiry: Please give the measured concentration at 504 h for this compound: O=C(O)C(F)(F)C(F)(F)C(F)(F)C(F)(F)C(F)(F)C(F)(F)C(F)(F)F
Return: 546

* * *

Experiment: Phase I study CXR1002-001: plasma pharmacokinetics (LC-MS/MS)
Type: in vivo, human
Conditions: human, plasma, oral, 600 mg, Patient 021, 600 mg, person, plasma, 676 hr; read-out: Concentration
Excerpt: PK samples, PD (fasting) samples, blood glucose, and blood triglyceride samples, were taken over a 6-week period. Dose limiting toxicity (DLT) will be based on the toxicity assessments over the first 3-week period of the repeat dosing schedule. […]
recorded_metric: concentration at 676 h (µM)
The answer is to be given in µM; state only the numeric part.

Enquiry: // returns reported concentration at 676 h for input O=C(O)C(F)(F)C(F)(F)C(F)(F)C(F)(F)C(F)(F)C(F)(F)C(F)(F)F [CXR1002]
Return: 845

* * *

Experiment: Phase I study CXR1002-001: plasma pharmacokinetics (LC-MS/MS)
Type: in vivo, human
Settings: human, plasma, oral, 100 mg, Patient 007 Dose 100 mg; 528 hr (Day 23); read-out: Concentration
recorded_metric: concentration at 528 hr

Enquiry: What value of concentration at 528 hr has been reported for the following molecule? O=C(O)C(F)(F)C(F)(F)C(F)(F)C(F)(F)C(F)(F)C(F)(F)C(F)(F)F
Return: 63.4 µM

* * *

Assay: Phase I study CXR1002-001: plasma pharmacokinetics (LC-MS/MS)
Format: in vivo, human
Conditions: human, plasma, oral, 600 mg, Patient 018, 600 mg, person, plasma, 340 hr; read-out: Concentration
recorded_metric: concentration at 340 h (µM)
Give the number; µM is assumed, so skip it.

Enquiry: Please look up its concentration at 340 h: O=C(O)C(F)(F)C(F)(F)C(F)(F)C(F)(F)C(F)(F)C(F)(F)C(F)(F)F
Return: 591

* * *

Test: Phase I study CXR1002-001: plasma pharmacokinetics (LC-MS/MS)
Assay type: in vivo, human
Details: human, plasma, po, 1000 mg, Patient 041, 1000 mg weekly oral dose, Time 340 hr; read-out: Concentration (plasma level)
recorded_metric: concentration at 340 hr (µM)
Provide only the numeric value, understood in µM.

Enquiry: What value of concentration at 340 hr has been recorded for this entry: O=C(O)C(F)(F)C(F)(F)C(F)(F)C(F)(F)C(F)(F)C(F)(F)C(F)(F)F
Return: 478

* * *

Experiment: Phase I study CXR1002-001: plasma pharmacokinetics (LC-MS/MS)
Assay type: in vivo, human
Conditions: human, plasma, oral, 600 mg, Patient 020, 600 mg, person, plasma, 844 hr; read-out: Concentration
recorded_metric: concentration at 844 h (µM)
Please state the figure in µM; there is no need to write the unit.

Enquiry: Can you look up the measured concentration at 844 h of O=C(O)C(F)(F)C(F)(F)C(F)(F)C(F)(F)C(F)(F)C(F)(F)C(F)(F)F [CXR1002] for me?
Return: 770
